- System: FXR:RXRa (NR concentration 270 nM, RXRa partner concentration 90 nM)
- procedure_text: PBM binding z-score (relative to random genomic background probes); higher = stronger binding; sequences stand for … in GC…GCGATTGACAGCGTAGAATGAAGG
Quick list: PBM binding z-score per entry.
Output spec: single numeric token, no unit.

sequence_string=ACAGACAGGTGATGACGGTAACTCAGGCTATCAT recorded_result=-0.347
sequence_string=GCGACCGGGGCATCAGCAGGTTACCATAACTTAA recorded_result=0.256
sequence_string=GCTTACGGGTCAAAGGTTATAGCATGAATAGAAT recorded_result=7.45
sequence_string=ATCTCTAGGTAAGATTCAGTTCAGTGAAGAACGC recorded_result=0.354
sequence_string=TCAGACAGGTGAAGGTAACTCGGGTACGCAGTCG recorded_result=1.07

Pending sequence:
Q) State PBM binding z-score on FXR:RXRa (NR concentration 270 nM, RXRa partner concentration 90 nM). Entry: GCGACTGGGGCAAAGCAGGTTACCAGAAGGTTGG
A) 0.766
